assay: growth of efflux-deficient E. coli DRC39 – strain DRC39, OD650, 24 h, E. coli filamentation inducers, primary screen (AID 1178);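 note: growth measured as culture turbidity by optical density at 650 nm; test concentration not given here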; conditions: E. coli DRC39 acrAB, higher = more signal, called active from +8 up or from −8 down
Each record gets a class by z-score: group A = under -0.3, group B = from -0.3 up to 0.4, group C = 0.4 and over

INSERT INTO assay_data (compound, assigned_label) VALUES
  ('CC(C)[Si]1(C(C)C)OCc2cc(C3CC3)nc(-c3ccc(Oc4ccccc4)cc3)c21', 'group B'),
  ('COc1ccc([Si](C)(C)[C@H]2[C@H](CC(=O)N3CCC[C@H]3CO)O[C@@]3(C(=O)N(Cc4ccc(N5CCOC5=O)cc4)c4ccccc43)[C@@H]2C)cc1', 'group B'),
  ('[N-]=[N+]=Nc1ccccc1C[C@]1(C(=O)NCC(O)CO)COC(c2ccc(OCCCO)cc2)=N1 (some centres undefined)', 'group C'),
  ('CC1=C2[C@@H](CCc3ccccc3)OB(O)C[C@@H]2[C@@H]2C(=O)N(Cc3ccccc3)C(=O)[C@@H]2C1', 'group B'),
  ('O=C1OCCC/C=C\[C@H]2OC34C=CCN(c5ccc6ccccc6c5)C(=O)[C@H]3N(CCO)C(=O)[C@@H]4C12 (some centres undefined)', 'group A'),
  ('C=C[C@H]1C(C(=O)OCC)=CC[C@@H](c2ccccc2)N1S(=O)(=O)c1ccc(C)cc1', 'group A'),
  ('COc1ccc([Si](C)(C)[C@@H]2[C@@H](CC(=O)N3Cc4ccccc4C[C@H]3CO)O[C@]3(C(=O)N(Cc4ccc(N5C(=O)c6cccc7cccc5c67)cc4)c4ccccc43)[C@H]2C)cc1', 'group B'),
  ('COC(=O)C1=CC(CCCO)=CC(c2cccs2)N(Cc2cccc(OC(F)(F)F)c2)C=C1C(=O)OC (centres undefined)', 'group C'),
  ('CC(CO)N1C(=O)[C@@H]2[C@H]3C(=O)OCC=C[C@H]3OC23C=CCN(Cn2nnc4ccccc42)C(=O)[C@@H]13 (some centres undefined)', 'group B'),
  ('COC(=O)c1c(CC[C@@H](CO)NC(=O)N[C@@H](C)Cn2cc(-c3ccccn3)nn2)oc(C(C)=O)c1C(=O)OC', 'group B'),
  ('COc1cccc(C)c1NC(=O)O[C@H]1[C@H](OC(=O)Nc2ccccc2-c2ccccc2)[C@H](OC(=O)Nc2ccccc2-c2ccccc2)[C@@H](OC)O[C@@H]1CO', 'group A'),
  ('COCCOC(=O)N1C(=O)[C@@]2(c3ccccc31)[C@H](C(=O)NC[C@H](O)c1ccccc1)[C@H]1C(=O)O[C@H](c3ccccc3)[C@H](c3ccccc3)N1[C@@H]2c1ccc(O)cc1', 'group B'),
  ('CCOC(=O)C[C@H]1[C@H](OC(=O)c2cc3ccccc3oc2=O)[C@@H](NC(=O)CC(C)C)c2cc(OCCCO)ccc2N1C(=O)c1ccc2ccccc2n1', 'group A'),
  ('COCC(=C=CC[C@H](O)c1ccccc1OCCO)C[C@H](O)c1ccccn1', 'group C'),
  ('NCCCCCNC(=O)[C@@H]1C[C@@H]2C(=O)N[C@@H](CCCCN)C(=O)N2[C@@H]1c1ccc(O)cc1', 'group B'),
  ('COCC(=C=CC[C@H](O)c1ccc(OCCO)cc1)CCO', 'group C'),
  ('CCCCC(CC)C(O)C1C=CC2C(=O)N(C)C(=O)C2N1Nc1ccccc1 (centres undefined)', 'group A'),
  ('COCCOC(=O)N1C(=O)[C@@]2(c3ccccc31)[C@H](c1ccc(O)cc1)N1[C@H](c3ccccc3)[C@H](c3ccccc3)OC(=O)[C@H]1[C@@H]2C(=O)N1CCN(c2ncccn2)CC1', 'group A'),
  ('CCCNC(=O)[C@@]1(Sc2ccc(C)cc2)CC(=O)N(C2Cc3ccccc3C2)[C@@H]1c1ccc(CO)cc1I', 'group C'),
  ('COC(=O)[C@@]1(Cc2ccc(F)cc2)[C@H]2c3cc(C(=O)N4CCCC4)n(CCc4c[nH]c5ccccc45)c3C[C@H]2CN1C(=O)c1ccccc1', 'group A'),
  ('C=CCN1Cc2ccccc2[C@@H]2OC(c3ccc(OCCCO)cc3)=N[C@]2(CC=C)C1=O', 'group C'),
  ('NC(=O)[C@H]1[C@@H]2C(=O)O[C@@H](c3ccccc3)[C@@H](c3ccccc3)N2[C@@H](c2ccc(OCCO)cc2)[C@]12C(=O)Nc1ccc(C#CCCO)cc12', 'group B'),
  ('COc1ccc([Si](C)(C)[C@@H]2[C@@H](CC(=O)N(CCO)Cc3ccccc3)O[C@]3(C(=O)N(Cc4cccc(N5CCCCC5=O)c4)c4ccccc43)[C@H]2C)cc1', 'group C'),
  ('CCOC(=O)C[C@H]1[C@H](OC(=O)c2ccc(-c3ccccc3)cc2)[C@@H](NC(=O)CC(C)C)c2cc(OCCCO)ccc2N1C(=O)c1ccc2ccccc2n1', 'group B'),
  ('CCOC(=O)[C@@H]1CCCCN1C(=O)C(=O)OC', 'group B'),
  ('O=C1O[C@H](c2ccccc2)[C@H](c2ccccc2)N2[C@H]1[C@@H](C(=O)O)[C@]1(C(=O)Nc3ccc(C#CCCO)cc31)[C@H]2c1ccccc1OCCO', 'group A'),
  ('[N-]=[N+]=Nc1ccccc1[C@H]1OC(c2ccc(OCCCO)cc2)=N[C@@]1(Cc1ccccc1)C(=O)NCCN1CCOCC1', 'group C'),
  ('CCCC=C(CCC)[C@@H](NP(=O)(c1ccccc1)c1ccccc1)c1ccc(-c2ccccc2)cc1', 'group A'),
  ('C=C(COC)C(=O)CC[C@@H](OC(C)=O)c1cccc(OCCO)c1', 'group C');

###

tested on: Inhibin beta A chain (activin A); test: small molecules binding activin A – biochemical, small-molecule microarray, 635 nm fluorescence scan, primary screen (AID 1107); settings: INHBA, higher = more signal;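 note: mouse activin A protein probed at 4.33 µg/mL on printed slides; score merges bound-protein fluorescence near 667 nm with spot signal-to-noise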
# composite z-score per record follows
Value Type: composite z-score

INSERT INTO results (molecule, test_system, measured_result) VALUES
  ('C=CC[C@@H](OC(=O)Nc1ccc(SC)cc1)c1ccc(O)c(F)c1', 'Inhibin beta A chain (activin A)', 0.77),
  ('Cc1cc(C)c(C(O)C2C=CC3C(=O)N(c4ccccc4)C(=O)C3N2Nc2ccccc2F)c(C)c1 (configuration not stated)', 'Inhibin beta A chain (activin A)', 0.72),
  ('CCOc1cc(C(O)C2C=CC3C(=O)NC(=O)C3N2Nc2ccc(Cl)cc2Cl)ccc1O (configuration not stated)', 'Inhibin beta A chain (activin A)', 1.37),
  ('O=C1O[C@@H](c2ccccc2)[C@@H](c2ccccc2)N2[C@@H](c3ccc(O)cc3)[C@]3(C(=O)Nc4ccc(C#CCCO)cc43)[C@@H](C(=O)N3CCN(c4ncccn4)CC3)[C@H]12', 'Inhibin beta A chain (activin A)', -0.0153),
  ('COc1ccc([Si](C)(C)[C@@H]2[C@@H](CC(=O)N(CCO)Cc3ccccc3)O[C@]3(C(=O)N(Cc4cccc(N5CCCCC5=O)c4)c4ccccc43)[C@H]2C)cc1', 'Inhibin beta A chain (activin A)', 0.493),
  ('COc1ccc([Si](C)(C)[C@@H]2[C@@H](CCO)O[C@]3(C(=O)N(Cc4ccccc4)c4ccc(NC(=O)[C@H](C)O)cc43)[C@H]2C)cc1', 'Inhibin beta A chain (activin A)', -0.159),
  ('C=CCC(OC(C)=O)[C@@H]1[C@@H](N(Cc2ccc(-c3cccc(C(F)(F)F)c3)o2)C(=O)c2ccc(-c3ccccc3)cc2)c2cc(OCCCO)ccc2N1C(=O)Cc1ccc2ccccc2c1 (some centres not stated)', 'Inhibin beta A chain (activin A)', 0.841);

###

experiment: probe aEGFR binding to arrayed compounds – biochemical, biotinylated probe, 635/667 nm fluorescence, primary screen (AID 1097); settings: small-molecule microarray, higher = more signal;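 note: probe is a biotinylated anti-EGFR antibody binding compounds printed on slides; score combines fluorescence near 667 nm and signal to noise of each spot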
Value Type: composite z-score

INSERT INTO results (compound, measured_result) VALUES
  ('C[C@@H]1NC(=O)[C@@H](Cc2ccccc2)NC(=O)[C@@]23C(=O)N[C@@H](Cc4ccccc4)C2[C@H](C)[C@@]2(C)O[C@H]2C3/C=C/C/C=C\CNC1=O (stereo partly specified)', -0.168),
  ('CC(CO)N1C(=O)[C@@H]2[C@H]3C(=O)OCC=C[C@H]3OC23C=CCN(Cn2nnc4ccccc42)C(=O)[C@@H]13 (stereo partly specified)', -0.292),
  ('CCCCCCCCCCC(O)C1C=CC2C(=O)N(c3ccccc3)C(=O)C2N1Nc1ccc(C#N)cc1 (stereo unspecified)', 0.0288),
  ('CC(C)N1C(=O)C[C@@](C(=O)NC2CC2)(c2ccc([N+](=O)[O-])cc2)[C@H]1c1ccc(CO)cc1', -0.281),
  ('CCOC(=O)C[C@H]1[C@H](OC(=O)c2ccc(C(=O)c3ccccc3)cc2)[C@@H](NC(=O)c2ccc(-c3ccccc3)cc2)c2cc(OCCCO)ccc2N1C(=O)Cc1ccc(OC)cc1', -0.0302),
  ('COC(=O)C1=CC(CCCO)=CC(c2cccs2)N(C)C=C1C(=O)OC (stereo unspecified)', -0.0034),
  ('[N-]=[N+]=Nc1ccccc1C[C@@]1(C(=O)NCCN2CCOCC2)N=C(c2ccc(OCCCO)cc2)O[C@@H]1c1ccccc1N=[N+]=[N-]', 0.0045),
  ('COC(=O)C/C=C/C[C@]1(O)C(=O)N(C)c2ccccc21', -0.0805),
  ('[N-]=[N+]=Nc1ccccc1[C@@H]1OC(c2ccc(OCCCO)cc2)=N[C@]1(Cc1ccccc1)C(=O)N1CCCCC1', 0.001),
  ('CCCCC(CC)C(O)C1C=CC2C(=O)N(c3ccccc3)C(=O)C2N1Nc1ccccc1F (stereo unspecified)', -0.162),
  ('Cc1ccc(S[C@]2(C(=O)O)CC(=O)N(C3CCCCC3)[C@@H]2c2ccc(CO)cc2I)cc1', -0.0369),
  ('COc1ccc([Si](C)(C)[C@@H]2[C@@H](CCO)O[C@]3(C(=O)N(Cc4cccc(NC(=O)[C@H](C)O)c4)c4ccccc43)[C@H]2C)cc1', -0.152),
  ('CCOC(=O)C1=CC[C@@H](c2ccccc2)N(S(=O)(=O)c2ccc(C)cc2)[C@H]1c1ccccc1', 0.0515),
  ('CC(C)(C)OC(=O)COc1cccc(C(=O)CCN2CCOCC2)c1', -0.0815),
  ('COC(=O)C1(CC(C)C)C=C2C(=C(c3ccccc3)C(=O)C2C)CN1 (stereo unspecified)', 0.917),
  ('NC(=O)[C@@]1(Cc2ccccc2)COC(c2ccc(OCCCO)cc2)=N1', -0.136),
  ('O=C1OCCC/C=C\[C@H]2OC34C=CCN(c5ccc6ccccc6c5)C(=O)[C@H]3N(CCO)C(=O)[C@@H]4C12 (stereo partly specified)', -0.335),
  ('COC(=O)[C@@]1(Cc2ccc(OC)cc2)[C@H]2c3cc(C(=O)N4CCCC4)n(CCc4c[nH]c5ccc(O)cc45)c3C[C@H]2CN1C(=O)c1ccccc1', 0.262),
  ('CCOC(=O)C[C@H]1[C@H](OC(=O)c2cc3ccccc3oc2=O)[C@@H](NC(=O)c2ccc3ccccc3n2)c2cc(OCCCO)ccc2N1C(=O)Cc1ccc(OC)cc1', 0.104),
  ('CCCC=C(CCC)[C@@H](NS(=O)(=O)c1ccc(C(F)(F)F)cc1)c1ccccc1', -0.0415),
  ('CCCNC(=O)[C@@]1(C)c2ccccc2C(=O)N(c2ccc(C)cn2)[C@H]1c1ccc(CO)cc1', -0.0828),
  ('O=C1C2C=CC(C(O)c3cccc(O)c3)N(Nc3ccc([N+](=O)[O-])cc3)C2C(=O)N1c1ccccc1 (stereo unspecified)', -0.0041),
  ('CC(C)c1ccc(NN2C(C(O)c3ccc(C#N)cc3)C=CC3C(=O)N(c4ccccc4)C(=O)C32)cc1 (stereo unspecified)', 0.16),
  ('Cn1cccc1C(O)C1C=CC2C(=O)N(c3ccccc3)C(=O)C2N1Nc1ccccc1 (stereo unspecified)', 0.0651),
  ('CC(C)=C1C(=O)C(c2ccccc2)=C2CN3C(=O)N(CCc4ccccc4)C(=O)[C@]3(Cc3ccc(C(F)(F)F)cc3)[C@H]21', -0.139),
  ('COCCOC(=O)N1C(=O)[C@@]2(c3cc(C#CC4=CCCCC4)ccc31)[C@H](C(=O)Nc1nc3ccccc3s1)[C@H]1C(=O)O[C@H](c3ccccc3)[C@H](c3ccccc3)N1[C@@H]2c1ccc(O)cc1', -0.0975),
  ('C=CCC(OC(C)=O)[C@@H]1[C@@H](N(Cc2cc3ccccc3o2)C(=O)Cc2ccc(F)cc2)c2cc(OCCCO)ccc2N1C(=O)Cc1ccc2ccccc2c1 (stereo partly specified)', -0.185),
  ('CCOC(=O)C[C@H]1[C@H](OC(=O)c2ccc(-c3ccccc3)cc2)[C@@H](NC(=O)CC(C)C)c2cc(OCCCO)ccc2N1C(=O)c1ccc2ccccc2n1', -0.0828),
  ('NCCCCCNC(=O)[C@H]1C[C@H]2C(=O)N3CCC[C@H]3C(=O)N2[C@H]1c1cccc(OCCO)c1', 0.102),
  ('COC(=O)[C@@H]1N=C(c2ccc(OCCCO)cc2)O[C@@H]1c1ccccc1', -0.0485),
  ('COCCCNC(=O)[C@@]1(Sc2ccc(C)cc2)CC(=O)N(C2Cc3ccccc3C2)[C@@H]1c1ccc(CO)cc1', -0.254);
